Listing of recorded viability, T/C by entry.
- System: 186277-243-T-J2-PDC complex spheroids, viability
- assay-notes: Anticancer human tumor 186277-243-T-J2-PDC patient-derived colon adenocarcinoma cell line growth inhibition [RAS]
- reported-conditions: second compound 0.316 µM; first compound 1 µM; stronger effect = lower value

[
  {
    "compound": "NC1c2ccccc2OC12CCN(c1cnc3c(N4CCCc5ncccc54)n[nH]c3n1)CC2 (stereo not drawn) + C#Cc1c(F)ccc2cc(O)cc(-c3ncc4c(N5CC6CCC(C5)N6)nc(OCC56CCCN5CC(F)C6)nc4c3F)c12",
    "assayed-system": "186277-243-T-J2-PDC complex spheroids, viability",
    "unit-descriptor": "%",
    "viability, T/C": 7.04
  },
  {
    "compound": "CC(C)NCC(C(=O)N1CCN(c2ncnc3c2C(C)CC3O)CC1)c1ccc(Cl)cc1 (stereo not drawn) + C#Cc1c(F)ccc2cc(O)cc(-c3ncc4c(N5CC6CCC(C5)N6)nc(OCC56CCCN5CC(F)C6)nc4c3F)c12",
    "assayed-system": "186277-243-T-J2-PDC complex spheroids, viability",
    "unit-descriptor": "%",
    "viability, T/C": 5.77
  },
  {
    "compound": "C=CC(=O)Nc1cc(Nc2nccc(-c3cn(C)c4ccccc34)n2)c(OC)cc1N(C)CCN(C)C + C=CC(=O)N1CCN(c2nc(OCC3CCCN3C)nc3c(F)c(-c4nc(N)cc(C)c4C(F)(F)F)c(Cl)cc23)C(C)C1",
    "assayed-system": "186277-243-T-J2-PDC complex spheroids, viability",
    "unit-descriptor": "%",
    "viability, T/C": 98.9
  }
]

###

- Tested on: 186277-243-T-J2-PDC complex spheroids, viability
- assay-notes: Anticancer human tumor 186277-243-T-J2-PDC cell line growth inhibition [RAS];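 further: spheroids exposed to compounds for 7 days before viability read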
- reported-conditions: second compound 0.03 µM; first compound 10 µM; stronger effect = lower value
assay-readout: viability, T/C (%)

[
  {
    "compound": "CC(=O)OC12COC1CC(O)C1(C)C(=O)C(O)C3=C(C)C(OC(=O)C(O)C(NC(=O)OC(C)(C)C)c4ccccc4)CC(O)(C(OC(=O)c4ccccc4)C21)C3(C)C (configuration not stated) + CCn1c(-c2cc(N3CCN(C)CC3)cnc2C(C)OC)c2c3cc(ccc31)-c1csc(n1)CC(NC(=O)C1CC1C)C(=O)N1CCCC(N1)C(=O)OCC(C)(C)C2",
    "assay-readout": "viability, T/C",
    "endpoint-result": 2.64
  },
  {
    "compound": "CC1(O)CCCC1n1c(=O)c(C(F)F)cc2cnc(NC3CCN(S(C)(=O)=O)CC3)nc21 (configuration not stated) + CCn1c(-c2cccnc2C(C)OC)c2c3cc(ccc31)N1CCOC(CC(NC(=O)C(C(C)C)N(C)C(=O)C3(F)CCN(C(=O)C#CC(C)(C)N(C)C)CC3)C(=O)N3CCCC(N3)C(=O)OCC(C)(C)C2)C1",
    "assay-readout": "viability, T/C",
    "endpoint-result": 1.84
  }
]

###

- Test system: 186277-243-T-J2-PDC complex spheroids, viability
- assay-notes: Anticancer human tumor 186277-243-T-J2-PDC cell line growth inhibition [RAS];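 further: spheroids exposed to compounds for 7 days before viability read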
- reported-conditions: second compound 0.1 µM; first compound 0.00316 µM; stronger effect = lower value
- From the text: RAS pathway inhibitors in Combinations in Complex Spheroids A high-throughput screen of multi-cell type tumor spheroids was designed to identify active combinations of RAS pathway inhibitors and targeted small molecules. Complex spheroids include a stromal component modeled by human endothelial cells (HUVEC) and fibroblasts modeled by human mesenchymal stem cells (MSCs). […] Compounds. […] If the clinical Cmax for an agent had not been determined, the highest concentration tested was 10 microM. […]
Would you mind sorting the entries by viability, T/C according to these classes? interval 1 = under 50%, interval 2 = from 50% up to 80%, interval 3 = 80% and over

[
  {
    "compound": "CC(C)n1nc(-c2ccc3oc(N)nc3c2)c2c(N)ncnc21 + C#Cc1c(F)ccc2cc(O)cc(-c3ncc4c(N5CC6CCC(C5)N6)nc(OCC56CCCN5CC(F)C6)nc4c3F)c12",
    "class-name": "interval 1"
  },
  {
    "compound": "CCN1CCN(Cc2ccc(Nc3ncc(F)c(-c4cc(F)c5nc(C)n(C(C)C)c5c4)n3)nc2)CC1 + C#Cc1c(F)ccc2cc(O)cc(-c3ncc4c(N5CC6CCC(C5)N6)nc(OCC56CCCN5CC(F)C6)nc4c3F)c12",
    "class-name": "interval 2"
  },
  {
    "compound": "O=C(c1ccc(F)c(F)c1Nc1ccc(I)cc1F)N1CC(O)([C@@H]2CCCCN2)C1 + C=CC(=O)N1CCN(c2nc(OCC3CCCN3C)nc3c(F)c(-c4nc(N)cc(C)c4C(F)(F)F)c(Cl)cc23)C(C)C1",
    "class-name": "interval 2"
  },
  {
    "compound": "CCN1CCN(Cc2ccc(Nc3ncc(F)c(-c4cc(F)c5nc(C)n(C(C)C)c5c4)n3)nc2)CC1 + C=CC(=O)N1CCN(c2nc(OCC3CCCN3C)nc3c(F)c(-c4nc(N)cc(C)c4C(F)(F)F)c(Cl)cc23)C(C)C1",
    "class-name": "interval 3"
  },
  {
    "compound": "C=CC(=O)N1CCN(c2nc(OCC3CCCN3C)nc3c(F)c(-c4nc(N)cc(C)c4C(F)(F)F)c(Cl)cc23)C(C)C1 (stereo unspecified) + C#Cc1c(F)ccc2cc(O)cc(-c3ncc4c(N5CC6CCC(C5)N6)nc(OCC56CCCN5CC(F)C6)nc4c3F)c12",
    "class-name": "interval 2"
  },
  {
    "compound": "CC(C)n1nc(-c2ccc3oc(N)nc3c2)c2c(N)ncnc21 + C=CC(=O)N1CCN(c2nc(OCC3CCCN3C)nc3c(F)c(-c4nc(N)cc(C)c4C(F)(F)F)c(Cl)cc23)C(C)C1",
    "class-name": "interval 3"
  },
  {
    "compound": "Nc1ccn(C2OC(CO)C(O)C2(F)F)c(=O)n1 (stereo unspecified) + C=CC(=O)N1CCN(c2nc(OCC3CCCN3C)nc3c(F)c(-c4nc(N)cc(C)c4C(F)(F)F)c(Cl)cc23)C(C)C1",
    "class-name": "interval 2"
  },
  {
    "compound": "Nc1ccn(C2OC(CO)C(O)C2(F)F)c(=O)n1 (stereo unspecified) + C#Cc1c(F)ccc2cc(O)cc(-c3ncc4c(N5CC6CCC(C5)N6)nc(OCC56CCCN5CC(F)C6)nc4c3F)c12",
    "class-name": "interval 1"
  },
  {
    "compound": "C=CC(=O)Nc1cc(Nc2nccc(-c3cn(C)c4ccccc34)n2)c(OC)cc1N(C)CCN(C)C + C=CC(=O)N1CCN(c2nc(OCC3CCCN3C)nc3c(F)c(-c4nc(N)cc(C)c4C(F)(F)F)c(Cl)cc23)C(C)C1",
    "class-name": "interval 3"
  }
]

###

- System: 186277-243-T-J2-PDC complex spheroids, viability
- assay-notes: Anticancer human tumor 186277-243-T-J2-PDC cell line growth inhibition [RAS];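 further: spheroids exposed to compounds for 7 days before viability read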
- reported-conditions: curve of first compound; second compound 0.03 µM
assay-readout: IC50

[
  {
    "compound": "CC(Nc1ccc2c(c1)OCCn1cc(N3C(=O)OCC3C(F)F)nc1-2)C(N)=O (stereo not given) + CCn1c(-c2cccnc2C(C)OC)c2c3cc(ccc31)N1CCOC(CC(NC(=O)C(C(C)C)N(C)C(=O)C3(F)CCN(C(=O)C#CC(C)(C)N(C)C)CC3)C(=O)N3CCCC(N3)C(=O)OCC(C)(C)C2)C1",
    "assayed-system": "186277-243-T-J2-PDC complex spheroids, viability",
    "assay-readout": "IC50",
    "endpoint-result": "5690 nM"
  },
  {
    "compound": "NC1c2ccccc2OC12CCN(c1cnc3c(N4CCCc5ncccc54)n[nH]c3n1)CC2 (stereo not given) + CCn1c(-c2cccnc2C(C)OC)c2c3cc(ccc31)N1CCOC(CC(NC(=O)C(C(C)C)N(C)C(=O)C3(F)CCN(C(=O)C#CC(C)(C)N(C)C)CC3)C(=O)N3CCCC(N3)C(=O)OCC(C)(C)C2)C1",
    "assayed-system": "186277-243-T-J2-PDC complex spheroids, viability",
    "assay-readout": "IC50",
    "endpoint-result": "> 10000 nM"
  },
  {
    "compound": "O=C(c1ccc(F)c(F)c1Nc1ccc(I)cc1F)N1CC(O)([C@@H]2CCCCN2)C1 + CCn1c(-c2cc(N3CCN(C)CC3)cnc2C(C)OC)c2c3cc(ccc31)-c1csc(n1)CC(NC(=O)C1CC1C)C(=O)N1CCCC(N1)C(=O)OCC(C)(C)C2",
    "assayed-system": "186277-243-T-J2-PDC complex spheroids, viability",
    "assay-readout": "IC50",
    "endpoint-result": "< 3.16 nM"
  },
  {
    "compound": "CC(C)n1nc(-c2ccc3oc(N)nc3c2)c2c(N)ncnc21 + CCn1c(-c2cc(N3CCN(C)CC3)cnc2C(C)OC)c2c3cc(ccc31)-c1csc(n1)CC(NC(=O)C1CC1C)C(=O)N1CCCC(N1)C(=O)OCC(C)(C)C2",
    "assayed-system": "186277-243-T-J2-PDC complex spheroids, viability",
    "assay-readout": "IC50",
    "endpoint-result": "< 0.316 nM"
  },
  {
    "compound": "CC(=O)OC12COC1CC(O)C1(C)C(=O)C(O)C3=C(C)C(OC(=O)C(O)C(NC(=O)OC(C)(C)C)c4ccccc4)CC(O)(C(OC(=O)c4ccccc4)C21)C3(C)C (stereo not given) + CCn1c(-c2cc(N3CCN(C)CC3)cnc2C(C)OC)c2c3cc(ccc31)-c1csc(n1)CC(NC(=O)C1CC1C)C(=O)N1CCCC(N1)C(=O)OCC(C)(C)C2",
    "assayed-system": "186277-243-T-J2-PDC complex spheroids, viability",
    "assay-readout": "IC50",
    "endpoint-result": "< 31.6 nM"
  }
]
